Each entry below lists one item and its recorded tissue uptake at 24 h value.
# protocol summary: in vivo
# cond: female, CD1/nude, mouse, 5 MBq (0.5 nmol), total radioactivity, Lung
# output: bare number, implied unit %ID/g

{"compound": "CC(C)C[C@H](NC(=O)[C@H](Cc1ccc(O)cc1)NC(=O)[C@@H](CCCNC(=N)N)NC(=O)[C@@H](CO)NC(=O)[C@H](Cc1ccccc1)NC(=O)[C@H](CC1CCCCC1)NC(=O)[C@H](CC(=O)O)NC(=O)[C@H](CCCCNC(=O)CCOCCOCCOCCOCCNC(=O)c1ccc(CNC(=O)CCCc2ccc(I)cc2)cc1)NC(=O)CN1CCN(CC(=O)O)CCN(CC(=O)O)CCN(CC(=O)O)CC1)C(=O)N[C@@H](Cc1c[nH]c2ccccc12)C(=O)N[C@@H](CO)C(N)=O [[^177Lu]Lu-uPAR-03, metal not drawn]", "tissue uptake at 24 h / %ID/g": 7.7}

Read the next record carefully.
For reference, reported tissue uptake at 24 h for CC(C)C[C@H](NC(=O)[C@H](Cc1ccc(O)cc1)NC(=O)[C@@H](CCCNC(=N)N)NC(=O)[C@@H](CO)NC(=O)[C@H](Cc1ccccc1)NC(=O)[C@H](CC1CCCCC1)NC(=O)[C@H](CC(=O)O)NC(=O)[C@H](CCCCNC(=O)CCOCCOCCOCCOCCNC(=O)CCCc1ccc(I)cc1)NC(=O)CN1CCN(CC(=O)O)CCN(CC(=O)O)CCN(CC(=O)O)CC1)C(=O)N[C@@H](Cc1c[nH]c2ccccc12)C(=O)N[C@@H](CO)C(N)=O [[^177Lu]Lu-uPAR-02, metal not drawn] stands at 4

* * *

# protocol summary: Biodistribution studies in HEK-uPAR xenograft-bearing nude mice
# cond: female, CD1/nude (Crl:CD1-Foxn nu), mouse, HEK-uPAR xenograft, 0.5 nmol, total radioactivity, HEK-uPAR xgft, 4 h p.i.; 5 MBq, 0.5 nmol; decay-corrected; average ± SD, n=3 animals
metric name: tissue uptake at 4 h

So for CC(C)C[C@H](NC(=O)[C@H](Cc1ccc(O)cc1)NC(=O)[C@@H](CCCNC(=N)N)NC(=O)[C@@H](CO)NC(=O)[C@H](Cc1ccccc1)NC(=O)[C@H](CC1CCCCC1)NC(=O)[C@H](CC(=O)O)NC(=O)CN1CCN(CC(=O)O)CCN(CC(=O)O)CCN(CC(=O)O)CC1)C(=O)N[C@@H](Cc1c[nH]c2ccccc12)C(=O)N[C@@H](CO)C(N)=O [[^177Lu]Lu-DOTA-AE105, metal not drawn, reference compound] , the logged tissue uptake at 4 h turned out to be < 1 %ID/g

* * *

Listing of recorded tissue uptake at 24 h by entry.
# protocol summary: Biodistribution studies in HEK-uPAR xenograft-bearing nude mice
# cond: female, CD1/nude, mouse, bone, 5 MBq (0.5 nmol), total radioactivity, 24 h p.i.; 5 MBq, 0.5 nmol; decay-corrected; average ± SD, n=3 animals
Form entry: value (%ID/g) — number only.

See these solved cases before continuing.
{"compound": "CC(C)C[C@H](NC(=O)[C@H](Cc1ccc(O)cc1)NC(=O)[C@@H](CCCNC(=N)N)NC(=O)[C@@H](CO)NC(=O)[C@H](Cc1ccccc1)NC(=O)[C@H](CC1CCCCC1)NC(=O)[C@H](CC(=O)O)NC(=O)CCOCCOCCOCCOCCNC(=O)[C@H](CCCCNC(=O)CCCc1ccc(I)cc1)NC(=O)CN1CCN(CC(=O)O)CCN(CC(=O)O)CCN(CC(=O)O)CC1)C(=O)N[C@@H](Cc1c[nH]c2ccccc12)C(=O)N[C@@H](CO)C(N)=O [[^177Lu]Lu-uPAR-05, metal not drawn]", "tissue uptake at 24 h (%ID/g)": 0.67}
{"compound": "CC(C)C[C@H](NC(=O)[C@H](Cc1ccc(O)cc1)NC(=O)[C@@H](CCCNC(=N)N)NC(=O)[C@@H](CO)NC(=O)[C@H](Cc1ccccc1)NC(=O)[C@H](CC1CCCCC1)NC(=O)[C@H](CC(=O)O)NC(=O)[C@H](CCCCNC(=O)CCCc1ccc(I)cc1)NC(=O)[C@@H](N)CCCCNC(=O)CN1CCN(CC(=O)O)CCN(CC(=O)O)CCN(CC(=O)O)CC1)C(=O)N[C@@H](Cc1c[nH]c2ccccc12)C(=O)N[C@@H](CO)C(N)=O [[^177Lu]Lu-uPAR-04, metal not drawn]", "tissue uptake at 24 h (%ID/g)": 0.85}
{"compound": "CC(C)C[C@H](NC(=O)[C@H](Cc1ccc(O)cc1)NC(=O)[C@@H](CCCNC(=N)N)NC(=O)[C@@H](CO)NC(=O)[C@H](Cc1ccccc1)NC(=O)[C@H](CC1CCCCC1)NC(=O)[C@H](CC(=O)O)NC(=O)[C@H](CCCCNC(=O)CCCc1ccc(I)cc1)NC(=O)CN1CCN(CC(=O)O)CCN(CC(=O)O)CCN(CC(=O)O)CC1)C(=O)N[C@@H](Cc1c[nH]c2ccccc12)C(=O)N[C@@H](CO)C(N)=O [[^177Lu]Lu-uPAR-01, metal not drawn]", "tissue uptake at 24 h (%ID/g)": 0.81}

Attention now shifts to the item below.
According to the records, this compound CC(C)C[C@H](NC(=O)[C@H](Cc1ccc(O)cc1)NC(=O)[C@@H](CCCNC(=N)N)NC(=O)[C@@H](CO)NC(=O)[C@H](Cc1ccccc1)NC(=O)[C@H](CC1CCCCC1)NC(=O)[C@H](CC(=O)O)NC(=O)CN1CCN(CC(=O)O)CCN(CC(=O)O)CCN(CC(=O)O)CC1)C(=O)N[C@@H](Cc1c[nH]c2ccccc12)C(=O)N[C@@H](CO)C(N)=O [[^177Lu]Lu-DOTA-AE105, metal not drawn, reference compound] displays tissue uptake at 24 h of 0.84
